assay: chemical genetic growth profiling, strain panel (AID 1159580);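 note: tested at 20 µM; growth read once vehicle control cultures reached saturation at 30 °C; 1 = growth at the plate median or of vehicle wells; lower values mean less growth of the strain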; conditions: S. cerevisiae deletion strains, growth OD, locus YDR162C, strain NBP2, hits give low values
About 2,000 (36%) of roughly 5,500 compounds were called active. Roughly 18% stayed inconclusive and do not appear here. Some of the results follow.
MEASUREMENT LABEL: normalized growth

# annotated cases, reported normalized growth shown
C[C@]12CCC3C(CC[C@H]4C[C@@H](O)CC[C@]34C)C1CC[C@@H]2O (stereo not given in full): 0.958 (inactive)
C[C@]12C=CC(=O)C=C1CCC1C2[C@@H](O)C[C@@]2(C)C1CC[C@]2(O)C(=O)CO (stereo not given in full): 0.992 (inactive)
CN[C@@H]1C(OC2[C@H](O[C@H]3[C@H](O)[C@@H](O)[C@H](N=C(N)N)[C@@H](O)[C@@H]3N=C(N)N)OC(C)[C@]2(O)CO)OC(CO)C(O)C1O (stereo not given in full): 1.01 (inactive)
CC(=O)NCCc1c[nH]c2ccc(O)cc12: 0.999 (inactive)
Cc1ccc(C(=O)c2ccc(CC(=O)O)n2C)cc1: 0.995 (inactive)

Prompt: # normalized growth lookup, item `Cc1cc(CC(=O)O)n(C)c1C(=O)c1ccc(Cl)cc1`
Response: 0.997 (inactive)

Prompt: Can you share its normalized growth? I mean this compound: C[C@]12CCC3C(CC[C@H]4C[C@H](O)CC[C@]34C)C1CC[C@@H]2O (stereo not given in full)
Response: 0.628 (active)

Prompt: Record request: normalized growth value, item O=C(O)CCC1NCC2CC1CN1CCCCC21 (stereo not given)
Response: 1 (inactive)

Prompt: Entry under review: C[C@@H]1CC[C@H]2C(C)(C)C3CC12CC[C@@]3(C)O (stereo not given in full) . Reported normalized growth?
Response: 1 (inactive)

Prompt: Which value of normalized growth has been reported for CN(C)CCC(c1ccccc1)c1ccccn1 (stereo not given) in the records?
Response: 1.01 (inactive)
